- Test system: endometrial adenocarcinoma Ishikawa cells
- measurement protocol: Cell viability MTT assay, Ishikawa
- Type: cell-based, human
- measurement setup: Homo sapiens, 48 h, p53-silenced cells, 48 h, read-out: IC50, MTT assay
pIC50: −log10 of the molar value.
measure: pIC50

INSERT INTO measurements (compound, study_system, experimental_value) VALUES
  ('COc1ccc(-c2oc3cc(O)c(OC)c(O)c3c(=O)c2OC)cc1 [santin, 5,7-dihydroxy-3,6,4′-trimethoxyflavone]', 'endometrial adenocarcinoma Ishikawa cells', 5.23);

###

The following compounds are listed with their measured IC50 values.
- Test system: cervical adenocarcinoma HeLa cells
- measurement protocol: Cell viability MTT assay, HeLa
- Assay type: cell-based, human
- measurement setup: HeLa, 48 h; read-out: IC50 values ± SD in MTT assay
measure: IC50

INSERT INTO results (compound, experimental_value) VALUES
  ('COc1ccc(-c2cc(=O)c3c(O)cc(OC)cc3o2)cc1 [apigenin 7,4′-O-dimethyl ether]', '> 50 µM'),
  ('N.N.[Cl][Pt][Cl] [cisplatin, reference compound]', '9.4 µM'),
  ('COc1ccc(C2CC(=O)c3c(O)cc(OC)cc3O2)cc1 (stereo not drawn) [naringenin 7,4′-O-dimethyl ether]', '> 50 µM');

Reference for the values: paper PMC10512030
